The following molecules were reported with pIC50 values on Protein arginine N-methyltransferase 5 (Homo sapiens) in different studies.
Sequence (O14744 whole entry): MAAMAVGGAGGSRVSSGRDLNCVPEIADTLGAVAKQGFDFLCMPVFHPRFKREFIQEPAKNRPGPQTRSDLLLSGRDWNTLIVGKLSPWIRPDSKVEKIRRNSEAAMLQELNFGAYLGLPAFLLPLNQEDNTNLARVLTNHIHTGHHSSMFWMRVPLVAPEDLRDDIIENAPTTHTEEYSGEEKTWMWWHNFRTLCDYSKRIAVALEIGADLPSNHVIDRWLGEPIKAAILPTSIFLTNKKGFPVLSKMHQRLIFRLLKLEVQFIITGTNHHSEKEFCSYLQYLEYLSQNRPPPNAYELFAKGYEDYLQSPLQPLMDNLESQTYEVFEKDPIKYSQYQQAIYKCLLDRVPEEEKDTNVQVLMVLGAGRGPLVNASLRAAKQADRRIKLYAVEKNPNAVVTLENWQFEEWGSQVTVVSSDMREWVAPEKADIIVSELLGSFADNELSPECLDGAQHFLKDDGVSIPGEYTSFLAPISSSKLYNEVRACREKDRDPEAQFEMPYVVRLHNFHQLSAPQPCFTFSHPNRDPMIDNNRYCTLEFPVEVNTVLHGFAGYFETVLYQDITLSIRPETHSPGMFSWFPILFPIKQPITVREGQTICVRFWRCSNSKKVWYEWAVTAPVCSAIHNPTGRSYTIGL
# pIC50: negative log10 of molar concentration; output just the value

Use these answered entries as a reference point.
Print Protein arginine N-methyltransferase 5 (Homo sapiens) pIC50 for N=C(N)c1ccc(OCCCCCCOc2ccc(C(=N)N)cc2)cc1 .
3.45

Print Protein arginine N-methyltransferase 5 (Homo sapiens) pIC50 for N#Cc1ccc2c(ccn2C[C@H](O)CN2CCc3ccccc3C2)c1 .
4.92

Print Protein arginine N-methyltransferase 5 (Homo sapiens) pIC50 for O[C@H](CN1CCc2ccccc2C1)Cn1ccc2c(F)cccc21 .
5.77

Further cases:
Print Protein arginine N-methyltransferase 5 (Homo sapiens) pIC50 for COc1ccc2c(c1)CCN(C[C@@H](O)Cn1ccc3cc(OC)ccc31)C2 .
4.44

Print Protein arginine N-methyltransferase 5 (Homo sapiens) pIC50 for O[C@H](CN1CCc2ccc(Br)cc2C1)Cn1ccc2ccc(Br)cc21 .
5.49

Print Protein arginine N-methyltransferase 5 (Homo sapiens) pIC50 for O[C@H](CN1CCc2ccccc2C1)Cn1ccc2ccc(Br)cc21 .
6.42

Print Protein arginine N-methyltransferase 5 (Homo sapiens) pIC50 for Cc1cc2ccccc2n1C[C@H](O)CN1CCc2ccccc2C1 .
5.89

Print Protein arginine N-methyltransferase 5 (Homo sapiens) pIC50 for N=C(N)c1ccc(OCCCCCCCCCCOc2ccc(C(=N)N)cc2)cc1 .
4.37

Print Protein arginine N-methyltransferase 5 (Homo sapiens) pIC50 for CC(C)N(CCCNC(=O)Nc1ccc(C(C)(C)C)cc1)C[C@H]1O[C@@H](n2ccc3c(N)ncnc32)[C@H](O)[C@@H]1O .
6.30

Print Protein arginine N-methyltransferase 5 (Homo sapiens) pIC50 for COc1ccc2c(ccn2C[C@H](O)CN2CCc3cc(O)ccc3C2)c1 .
6.92

Print Protein arginine N-methyltransferase 5 (Homo sapiens) pIC50 for Cc1cccc2c1ccn2C[C@H](O)CN1CCc2ccccc2C1 .
5.74

Print Protein arginine N-methyltransferase 5 (Homo sapiens) pIC50 for CC(=O)N1CCC(Nc2nccc(C(=O)NC[C@@H](O)CNC3CC4C=CC=CC4C3)c2C)CC1 (some centres not stated) .
6.98

Print Protein arginine N-methyltransferase 5 (Homo sapiens) pIC50 for O[C@H](CN1CCc2ccccc2C1)Cn1ccc2ccccc21 .
6.07

Print Protein arginine N-methyltransferase 5 (Homo sapiens) pIC50 for N#Cc1cn([C@@H]2O[C@H](CSCC[C@H](N)C(=O)O)[C@@H](O)[C@H]2O)c2ncnc(N)c12 .
5.62

Print Protein arginine N-methyltransferase 5 (Homo sapiens) pIC50 for N=C(N)c1ccc(/C=C/c2ccc(C(=N)N)cc2)cc1 .
3.15

Print Protein arginine N-methyltransferase 5 (Homo sapiens) pIC50 for COc1cccc2c1ccn2C[C@H](O)CN1CCc2ccccc2C1 .
5.34

Print Protein arginine N-methyltransferase 5 (Homo sapiens) pIC50 for COc1ccc2c(c1)CCN(C[C@@H](O)Cn1ccc3ccc(Br)cc31)C2 .
4.50

Print Protein arginine N-methyltransferase 5 (Homo sapiens) pIC50 for Nc1cccc(CCC[C@@H]2C[C@H](n3ccc4c(N)ncnc43)[C@@H](O)[C@H]2O)n1 .
9.40

Print Protein arginine N-methyltransferase 5 (Homo sapiens) pIC50 for Cc1cc2cc(F)ccc2n1C[C@H](O)CN1CCc2ccccc2C1 .
4.65

Print Protein arginine N-methyltransferase 5 (Homo sapiens) pIC50 for Cc1cn(C[C@H](O)CN2CCc3ccccc3C2)c2ccccc12 .
5.49
